Tested on: MDA-MB-468 breast
Test: NCI tumour cell line growth inhibition, 48 h; in the data active = GI50 below about 0.43 µM; inactive = the rest
A correct response names exactly one class from yes (1) = active, no (0) = inactive

Completed entries (count: 3):
[
  {
    "Compound": "CC(C)N(Cc1ccc(CN(C(=O)CCl)C(C)C)cc1)C(=O)CCl",
    "Label": "no (0)"
  },
  {
    "Compound": "ClC(Cn1ncc2c(Nc3cccc(Br)c3)nc(SCCN3CCOCC3)nc21)c1ccc(Br)cc1 (stereo not drawn)",
    "Label": "no (0)"
  },
  {
    "Compound": "COc1ccccc1S(=O)(=O)Nc1ccc2c3c(cc(CCC(=O)NCCCCNc4cccc5c4C(=O)N(C4CCC(=O)NC4=O)C5=O)cc13)C(=O)N2C (stereo not drawn)",
    "Label": "yes (1)"
  }
]

What did this assay record as the result for CNCCN(C)c1ccc(Nc2cc(NC3CC3)n3ncc(C#N)c3n2)cc1NC(C)=O ?
yes (1)

What did this assay record as the result for O=C1CSC(c2ccccc2Cl)N1c1nnc(Cn2cnnc2)o1 (stereo not drawn) ?
no (0)

What did this assay record as the result for N#CC1=C(N)Oc2c(ccc3ccccc23)C1c1cc(=O)oc2ccc(Cl)cc12 (stereo not drawn) ?
no (0)

What did this assay record as the result for Cc1ccc(-c2nc(/C=N/Nc3cc(C)nc4ccc(Cl)cc34)c(C)o2)cc1 ?
no (0)

What did this assay record as the result for COC(=O)N1CCN(CCNCc2ccc(NC(=O)c3ccc(C)c(C#Cc4cnc5cccnn45)c3)cc2C(F)(F)F)CC1 ?
no (0)
